Conditions: siRNA; also: test system not given here
HELM strings list units from the 5' end as sugar, base in round brackets, then linkage (d deoxyribose, r ribose, m 2'-O-methyl, p phosphodiester). Strings are as the collection lists them, not checked against the first reports. ss, as = sense and antisense strand; [lna] = locked nucleic acid (LNA); [hna] = hexitol nucleic acid
Assign target mRNA knockdown to each entry below.
Answer with the figure and its unit, nothing else.

Some solved entries appear below for comparison.
RNA1{r(U)p.r(C)p.r(C)p.r(C)p.r(U)p.r(U)p.r(C)p.r(C)p.r(A)p.r(C)p.r(C)p.r(G)p.r(C)p.r(C)p.r(A)p.m(U)p.r(A)p.r(U)p.r(U)p.r(T)p.r(T)}|RNA2{r(A)p.r(A)p.m(U)p.r(A)p.r(U)p.r(G)p.r(G)p.r(C)p.r(G)p.r(G)p.r(U)p.r(G)p.r(G)p.r(A)p.r(A)p.r(G)p.r(G)p.r(G)p.r(A)p.r(T)p.r(T)}$$$RNA1{StrandType:ss}|RNA2{StrandType:as}$ : 49%
RNA1{[hna](G)p.[hna](A)p.[hna](C)p.r(G)p.r(U)p.r(A)p.r(A)p.r(A)p.r(C)p.r(G)p.r(G)p.r(C)p.r(C)p.r(A)p.r(C)p.r(A)p.r(A)p.[hna](G)p.[hna](U)p.r(U)p.d(T)}|RNA2{r(A)p.r(C)p.r(U)p.r(U)p.r(G)p.r(U)p.r(G)p.r(G)p.r(C)p.r(C)p.r(G)p.r(U)p.r(U)p.r(U)p.r(A)p.r(C)p.r(G)p.r(U)p.[lna](C)p.[lna](G)p.r(C)}$$$RNA1{StrandType:ss}|RNA2{StrandType:as}$ : 84.7%

Could you now look at the following substance, please?
// query I would be grateful if you could share the reported target mRNA knockdown for `RNA1{r(A)p.r(C)p.r(C)p.r(U)p.m(U)p.r(A)p.r(A)p.r(G)p.r(G)p.r(A)p.r(C)p.m(C)p.r(A)p.r(C)p.r(C)p.r(G)p.r(G)p.r(A)p.r(U)p.r(T)p.r(T)}|RNA2{r(A)p.r(U)p.r(C)p.r(C)p.r(G)p.r(G)p.m(U)p.r(G)p.r(G)p.r(U)p.r(C)p.r(C)p.r(U)p.m(U)p.r(A)p.r(A)p.r(G)p.r(G)p.r(U)p.r(T)p.r(T)}$$$RNA1{StrandType:ss}|RNA2{StrandType:as}$` .
// result 72%

The measured values listed here are drawn from the OligoGym collection.
